EXPERIMENTAL SYSTEM: human GluR2 flip (unedited) AMPA receptor subunit (Homo sapiens, UniProt P42262)
Sequence (P42262 25-883 isoform P42262-2 limits assumed): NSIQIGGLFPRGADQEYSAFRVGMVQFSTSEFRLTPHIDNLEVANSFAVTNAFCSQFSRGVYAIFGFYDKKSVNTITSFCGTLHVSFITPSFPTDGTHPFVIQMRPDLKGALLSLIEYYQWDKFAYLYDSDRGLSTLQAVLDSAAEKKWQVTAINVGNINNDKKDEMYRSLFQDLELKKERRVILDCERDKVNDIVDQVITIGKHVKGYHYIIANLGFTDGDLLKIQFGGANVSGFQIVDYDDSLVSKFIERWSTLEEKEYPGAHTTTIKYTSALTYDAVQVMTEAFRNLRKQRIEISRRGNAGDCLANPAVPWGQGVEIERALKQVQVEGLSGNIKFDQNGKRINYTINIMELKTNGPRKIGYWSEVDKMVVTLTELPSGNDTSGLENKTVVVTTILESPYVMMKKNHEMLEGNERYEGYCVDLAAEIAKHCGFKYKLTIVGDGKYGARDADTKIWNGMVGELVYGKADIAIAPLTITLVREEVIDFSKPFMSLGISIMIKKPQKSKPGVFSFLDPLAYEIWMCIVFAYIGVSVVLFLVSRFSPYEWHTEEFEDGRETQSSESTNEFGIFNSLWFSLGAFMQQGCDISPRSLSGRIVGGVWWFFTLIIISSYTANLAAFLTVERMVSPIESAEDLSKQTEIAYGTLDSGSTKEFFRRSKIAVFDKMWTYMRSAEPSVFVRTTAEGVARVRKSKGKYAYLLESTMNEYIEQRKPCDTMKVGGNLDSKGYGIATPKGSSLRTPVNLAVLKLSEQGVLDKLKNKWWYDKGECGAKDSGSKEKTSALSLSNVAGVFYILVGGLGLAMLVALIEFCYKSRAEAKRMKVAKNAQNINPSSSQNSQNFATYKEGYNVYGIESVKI
ASSAY PROTOCOL: Calcium influx fluorescence assay (FLUO4, FLIPR)
MEASUREMENT CONTEXT: HEK 293 cells expressing human GluR2 flip (unedited); 100 μM glutamate; peak fluorescence
QUANTITY NAME: EC50 (µM)
State just the number; it will be interpreted in µM.

Please list EC50 recorded for the compound CC(C)S(=O)(=O)NC1Cc2ccc(-c3ccsc3)cc2C1 (stereo not shown) 10
